readout: IC50

IN: API: value(readout=IC50, system=serotonin2 -receptors (Rattus norvegicus, UniProt P14842)) for record COC(=O)C1=C(C)NC(C)=C(C(=O)OCCN(C)CCCC(=O)c2ccc(F)cc2)C1c1cccc([N+](=O)[O-])c1 (stereo not shown)
OUT: ~10 nM
